Just for reference, patent US20260308145A1 is where these values come from.

Below is a list of entries, each paired with its recorded pIC50 value.
target: CDK2/cyclinE1 (Homo sapiens, UniProt P24941); assay: Cyclin-dependent kinase activity assay (continuous ATP coupling assay), CDK2/cyclinE1; conditions: CDK2/cyclinE1 5 nM, ATP 300 μM, Rb copeptide 100 μM, 15 min preincubation, pH 7.5, 1% DMSO
pIC50: −log10 of the molar value.

O=S(=O)(NCCO)c1ccc(Nc2ncc(Cl)c(-n3cccn3)n2)cc1: ≥ 8.00
CNS(=O)(=O)c1ccc(Nc2ncc(C(F)(F)F)c(-n3cc(-c4ccoc4)cn3)n2)cc1: 7.00 to 8.00
CNS(=O)(=O)c1ccc(Nc2ncc(C(F)(F)F)c(-n3cc(C4CCCN4)cn3)n2)cc1 (single isomer, unassigned): ≥ 8.00
CNS(=O)(=O)c1ccc(Nc2ncc(C(F)(F)F)c(-n3cc(C4CNC4)cn3)n2)cc1: ≥ 8.00
CNS(=O)(=O)c1ccc(Nc2ncc(C(F)(F)F)c(-n3cc(N4CCCC4=O)cn3)n2)cc1: 7.00 to 8.00

Lookup: Which pIC50 is listed for "O=S1(=O)NCc2cc(Nc3ncc(C(F)(F)F)c(-n4cccn4)n3)ccc21" ?
Found: ≤ 7.00

Lookup: Which pIC50 is listed for "CNS(=O)(=O)c1ccc(Nc2ncc(C(F)(F)F)c(-n3cc(C4CN(C(C)=O)C4)cn3)n2)cc1" ?
Found: 7.00 to 8.00

Lookup: Which pIC50 is listed for "CNS(=O)(=O)c1ccc(Nc2ncc(C(F)(F)F)c(-n3ncc(CC(C)(C)O)c3C)n2)cc1" ?
Found: 7.00 to 8.00

Lookup: Which pIC50 is listed for "CNS(=O)(=O)c1ccc(Nc2ncc(C(F)(F)F)c(-n3cc(N4CC(O)C4)cn3)n2)cc1" ?
Found: ≥ 8.00

Lookup: Which pIC50 is listed for "O=S(=O)(NCCCCO)c1ccc(Nc2ncc(C(F)(F)F)c(-n3cccn3)n2)cc1" ?
Found: ≥ 8.00

Lookup: Which pIC50 is listed for "CNS(=O)(=O)c1ccc(Nc2ncc(C(F)(F)F)c(-n3cc([C@H]4CCCN4)cn3)n2)cc1" ?
Found: ≥ 8.00

Lookup: Which pIC50 is listed for "CNS(=O)(=O)c1ccc(Nc2ncc(C(F)(F)F)c(-n3cc(F)cn3)n2)cc1" ?
Found: 7.00 to 8.00

Lookup: Which pIC50 is listed for "CNS(=O)(=O)c1ccc(Nc2nccc(-n3cccn3)n2)cc1" ?
Found: ≤ 7.00
